# Target: T1, rat PrRP receptor in RC-4B/C cells (rat, UniProt Q64121 1-370)
# T1 construct: whole, on cells; endogenous receptor of RC-4B/C cells (ATCC); also called rat receptor; GPR10 receptor expressed in rat hypophyseal cells
# T1 sequence (looked up): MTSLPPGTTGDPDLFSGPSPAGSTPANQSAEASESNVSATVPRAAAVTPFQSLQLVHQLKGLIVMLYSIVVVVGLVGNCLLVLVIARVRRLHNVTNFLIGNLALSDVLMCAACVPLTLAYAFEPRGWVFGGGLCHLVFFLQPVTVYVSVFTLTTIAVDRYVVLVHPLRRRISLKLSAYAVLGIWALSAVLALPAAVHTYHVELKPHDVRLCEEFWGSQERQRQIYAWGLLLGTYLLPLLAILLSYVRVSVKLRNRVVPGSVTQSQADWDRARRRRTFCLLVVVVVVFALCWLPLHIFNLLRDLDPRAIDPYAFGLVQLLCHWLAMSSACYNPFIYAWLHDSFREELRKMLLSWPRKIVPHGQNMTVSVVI
# Assay Overview: competition with 125I-rat PrRP31, RC-4B/C cells
Square brackets hold non-standard residues; d marks the D form. Ends that are not written are not given here. * marks the point of attachment. Phe(F5) = N[C@@H](Cc1c(F)c(F)c(F)c(F)c1F)C(=O)O; 1Nal = N[C@@H](Cc1cccc2ccccc12)C(=O)O; Palmitoyl = CCCCCCCCCCCCCCCC(=O)*; Myristoyl = CCCCCCCCCCCCCC(=O)*; Decanoyl = CCCCCCCCCC(=O)*; Nle = CCCC[C@H](N)C(=O)O

- Binder: "TPDINPAWYASRPFRPVGRF-NH2 [analog no. 33]"
  % of PrRP31: "230%"
- Binder: "Decanoyl-SRAHQHS[Nle]ETRTPDINPAWYTGRGIRPVGRF-NH2 [analog no. 5]"
  % of PrRP31: "758%"
- Binder: "TPDINPAWYTGRGARPFGRF-NH2 [analog no. 31]"
  % of PrRP31: "0.8%"
- Binder: "Palmitoyl-SRAHQHS[Nle]ETRTPDINPAWYTGRGIRPVGR[Phe(F5)]-NH2 [analog no. 22]"
  % of PrRP31: "966%"
- Binder: "Palmitoyl-SRTHRHSMEIRTPDINPAWYASRGIRPVGRF-NH2 (also called analog no; 43; compound 43) [palm-PrRP31 (analog 43)]"
  % of PrRP31: "519%"
- Binder: "SRTHRHSMEIKTPDINPAWYASRGIRPVGRF ((N-palm(N-POE)) at the N-terminus; K(N-palm(N-POE)) at residue 11; C-terminal amide) [analog no. 59]"
  % of PrRP31: "85%"
- Binder: "TPDINPAWYASRGIRPVGRF-NH2 (synthetic peptide) [Human PrRP20]"
  % of PrRP31: "277%"
- Binder: "Palmitoyl-SRAHQHS[Nle]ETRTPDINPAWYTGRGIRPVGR[1Nal]-NH2 [analog no. 12]"
  % of PrRP31: "227%"
- Binder: "Myristoyl-SRAHQHS[Nle]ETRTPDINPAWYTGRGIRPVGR[1Nal]-NH2 [analog no. 11]"
  % of PrRP31: "124%"
